Taken from paper PMC9887672.

system: uHeart 3D cardiac microtissues (h-iPSC-CMs and dermal fibroblasts in fibrin); test: Drug screening on uHeart: field potential recording (FPDcF, BP, AMP, arrhythmic events, beating cessation)
Examples of compounds with documented Arrhythmic events, percentage of uHearts affected follow.
recordedMetric: Arrhythmic events, percentage of uHearts affected (%)

compound	measured
C=C[C@H]1C[N@@]2CC[C@H]1C[C@@H]2[C@@H](O)c1ccnc2ccc(OC)cc12	50
COc1ccccc1OCC(O)CN1CCN(CC(=O)Nc2c(C)cccc2C)CC1 (centres unmarked)	20
COc1cc(N)c(Cl)cc1C(=O)NC1CCN(CCCOc2ccc(F)cc2)CC1OC (centres unmarked) [Cisapride]	50
CC(C)(C)c1ccc(C(O)CCCN2CCC(C(O)(c3ccccc3)c3ccccc3)CC2)cc1 (centres unmarked)	60
CN(CCOc1ccc(NS(C)(=O)=O)cc1)CCc1ccc(NS(C)(=O)=O)cc1 [Dofetilide]	66
